- Experiment summary: Phase I/IIa clinical PK of oral psilocin-d10, plasma, noncompartmental analysis (Cohorts 1-6)
- Type: in vivo, human
- Run parameters: human, plasma, po, 12 mg, 12 mg oral, Cohort 5 MDD, Day 1 and Day 22; read-out: AUC0-24 Mean (SD)
Readout name: AUC(0-t) (ng·h/mL)
Give the quantity in ng·h/mL, number only.

Ask: Could you share which AUC(0-t) value was measured for [2H]C([2H])([2H])N(C([2H])([2H])[2H])C([2H])([2H])C([2H])([2H])c1c[nH]c2cccc(O)c12 ?
Reply: 137

----------
- Experiment summary: Phase I/IIa clinical PK of oral psilocin-d10, plasma, noncompartmental analysis (Cohorts 1-6)
- Format: in vivo, human
- Run parameters: human, plasma, po, 10 mg, 10 mg oral, Cohort 3 NHV, Day 8; read-out: Vz/F Mean (SD)
Readout name: Vd/F (L)
Quick note: give the figure in L, leave out the unit.

Ask: Looking for the measured Vd/F of [2H]C([2H])([2H])N(C([2H])([2H])[2H])C([2H])([2H])C([2H])([2H])c1c[nH]c2cccc(O)c12 , can you help?
Reply: 758

----------
- Experiment summary: Phase I/IIa clinical PK of oral psilocin-d10, plasma, noncompartmental analysis (Cohorts 1-6)
- Type: in vivo, human
- Run parameters: human, plasma, oral, 16 mg, as given in the text; read-out: mean elimination half-life (T1/2) (converted)
Readout name: half-life (h)
Answer in h, number only, no unit symbol.

Ask: Which value of half-life has been reported for [2H]C([2H])([2H])N(C([2H])([2H])[2H])C([2H])([2H])C([2H])([2H])c1c[nH]c2cccc(O)c12 [psilocin-d10] in the records?
Reply: 5.58

----------
- Experiment summary: Phase I/IIa clinical PK of oral psilocin-d10, plasma, noncompartmental analysis (Cohorts 1-6)
- Format: in vivo, human
- Run parameters: human, plasma, po, 12 mg, 12 mg oral, Cohort 4 MDD, Day 1 and Day 22; read-out: Cmax Median
Readout name: Cmax (ng/mL)
Record the value in ng/mL, omitting the unit from your answer.

Ask: Could you share which Cmax value was measured for [2H]C([2H])([2H])N(C([2H])([2H])[2H])C([2H])([2H])C([2H])([2H])c1c[nH]c2cccc(O)c12 ?
Reply: 18.6

----------
- Experiment summary: Phase I/IIa clinical PK of oral psilocin-d10, plasma, noncompartmental analysis (Cohorts 1-6)
- Assay type: in vivo, human
- Run parameters: human, plasma, po, 12 mg, 12 mg oral, Cohort 4 MDD, Day 1 and Day 22; read-out: AUC0-24 Mean (SD)
Readout name: AUC(0-t) (ng·h/mL)
Record the value in ng·h/mL, omitting the unit from your answer.

Ask: Returns the measured AUC(0-t) for the input molecule. Input: [2H]C([2H])([2H])N(C([2H])([2H])[2H])C([2H])([2H])C([2H])([2H])c1c[nH]c2cccc(O)c12 [psilocin-d10]
Reply: 155

----------
The compounds listed here are annotated with their Cmax.
- Run parameters: female, rat, in vivo, 40 mg/kg
Answer format: numeric, ng/mL implied, no suffix.

Ask: Form field: reported Cmax of CN(C)CCc1c[nH]c2cccc(O)c12 [psilocin, 4-hydroxy-N,N-dimethyltryptamine]
Reply: 343

Now, please, on to the next compound.
Ask: Any idea what its Cmax is? The compound is [2H]C([2H])([2H])N(C([2H])([2H])[2H])C([2H])([2H])C([2H])([2H])c1c[nH]c2cccc(O)c12
Reply: 343
